Hello, the source for this data is patent US20200095340A1, in case you need it.

Parameter: pKd. Scope: all listed entries.
# system-tested: biotinylated human DLL3 protein expressed as a human IgG1 fusion protein (human) (UniProt Q9NYJ7)
# Sequence (Q9NYJ7 27-492): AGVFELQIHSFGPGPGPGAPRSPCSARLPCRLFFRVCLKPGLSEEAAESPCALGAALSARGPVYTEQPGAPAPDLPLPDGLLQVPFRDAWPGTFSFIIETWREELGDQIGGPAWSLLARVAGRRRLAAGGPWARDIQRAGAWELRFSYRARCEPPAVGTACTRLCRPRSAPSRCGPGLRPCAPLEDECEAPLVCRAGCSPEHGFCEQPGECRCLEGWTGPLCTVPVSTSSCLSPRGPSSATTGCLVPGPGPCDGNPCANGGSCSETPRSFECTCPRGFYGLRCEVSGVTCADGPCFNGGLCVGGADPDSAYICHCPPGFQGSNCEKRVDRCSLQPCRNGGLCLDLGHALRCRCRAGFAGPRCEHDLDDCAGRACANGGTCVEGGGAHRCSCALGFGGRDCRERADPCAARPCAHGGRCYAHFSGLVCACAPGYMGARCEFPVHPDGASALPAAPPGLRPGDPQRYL
# experimental-details: Octet, biotinylated human DLL3-IgG1 fusion on streptavidin tips, single 50 nM, conditioned medium (relative KD)
Note on units: pKd is unitless, being -log10 of a concentration expressed in mol/L.

Known pKd results, listed for orientation:
anti-DLL3 trispecific protein, DLL3 binder 3C06 (protein, part only; not given: CD3 binder and albumin binder, part only) chain, part: EVQLVESGGGLVQPGGSLTLSCAASGTSVSFLSIAWYRQAPGKKRELVAGISADGSTDYIASVKGRFTISRDNAKNSVYLQMNSLRAEDTAVYYCYAYRWRTRYTYWGQGTLVTVSSGGGGSGGGSGGGGSGGGSHHHHHH : 8.00
anti-DLL3 trispecific protein, DLL3 binder 3H09 (protein, part only; not given: anti-CD3 fragment and anti-albumin domain, part only) chain, part: EVQLVESGGGLVQPGGSLTLSCAASKSSVSFLSMAWYRQAPGKKRELVAGISADGSTDYIDSVKGRFTISRDNAKNSVYLQMNSLRAEDTAVYYCYAYRWTTRATYWGQGTLVTVSSGGGGSGGGSGGGGSGGGSHHHHHH : 7.85
anti-DLL3 trispecific protein, DLL3 binder 3C01 (protein, part only; not given: CD3 binder and albumin binder, part only) chain, part: EVQLVESGGGLVQPGGSLTLSCAASGSSVRFLSMAWYRQAPGKKRELVAGISAHGSTDYIDSVKGRFTISRDNAKNSVYLQMNSLRAEDTAVYYCYAYRWSTRYTYWGQGTLVTVSSGGGGSGGGSGGGGSGGGSHHHHHH : 7.85

Field: next binder
Could you tell me which pKd is on file for anti-DLL3 trispecific protein, DLL3 binder 1H06 (protein, part only; not given: anti-CD3 fragment and anti-albumin sdAb, part only) chain, part: EVQLVESGGGLVQPGGSLTLSCVASGTTSSINAMGWYRRAPGKQRELVAGISSDGSKVYVDSVKGRFTISRDNAKNSVYLQMNSLRAEDTAVYYCYYFRFLSGSSMRYWGQGTLVTVSSGGGGSGGGSGGGGSGGGSHHHHHH ?
7.85
